The measured values listed here are drawn from ChEMBL document CHEMBL1287651.

Exercise: state measured MIC for each of the compounds provided.
System: Staphylococcus epidermidis
experiment: Antibacterial activity against methicillin-resistant Staphylococcus epidermidis 09-3 after 18 to 24 hrs by twofold serial dilution method
Format: functional
Express the result in µg/mL but write the number alone.

Input line: Provide measured MIC on Staphylococcus epidermidis for CCO/N=C1\CN(c2c(F)cc3c(=O)c(C(=O)O)cn(CCF)c3c2F)CC1/C(N)=N\OC (stereo not given) please.
Output line: 0.25

Input line: Quote Staphylococcus epidermidis MIC for entry CCO/N=C1\CN(c2c(F)cc3c(=O)c(C(=O)O)cn4c3c2OC[C@@H]4C)CC1/C(N)=N\O (stereo not given in full) .
Output line: 0.25

Input line: Report its MIC with Staphylococcus epidermidis as the test system: CCO/N=C1\CN(c2c(F)cc3c(=O)c(C(=O)O)cn(CCF)c3c2F)CC1/C(N)=N\O (stereo not given)
Output line: 0.5

Input line: State the measured MIC (Staphylococcus epidermidis) of CCO/N=C1\CN(c2c(F)cc3c(=O)c(C(=O)O)cn(C4CC4)c3c2OC)CC1/C(N)=N\O (stereo not given)
Output line: 0.25

Input line: Under Staphylococcus epidermidis: report MIC of CCO/N=C1\CN(c2nc3c(cc2F)c(=O)c(C(=O)O)cn3C2CC2)CC1/C(N)=N\OC (stereo not given) .
Output line: 0.125

###

Provide the recorded MIC for the entries that follow.
Test system: Pseudomonas aeruginosa
experiment: Antibacterial activity against Pseudomonas aeruginosa ATCC 27853 after 18 to 24 hrs by twofold serial dilution method
Type: functional
Please give a number only; it is taken to be in µg/mL.

Input line: Specify reported MIC for the compound shown: CO/N=C1\CN(c2c(F)cc3c(=O)c(C(=O)O)cn4c3c2OC[C@@H]4C)CC1/C(N)=N\OC (some centres undefined)
Output line: 4

Input line: For the compound CCO/N=C1\CN(c2c(F)cc3c(=O)c(C(=O)O)cn4c3c2OC[C@@H]4C)CC1/C(N)=N\O (some centres undefined) , give its reported MIC.
Output line: 32

###

Assignment: determine reported log10 of MIC for the given molecules.
Test system: Staphylococcus epidermidis
experiment: Antibacterial activity against methicillin-sensitive Staphylococcus epidermidis 09-6 after 18 to 24 hrs by twofold serial dilution method
Type: functional
# values: log10(MIC), units µg/mL

Input line: Give log10 of MIC for the following molecule: CCO/N=C1\CN(c2nc3c(cc2F)c(=O)c(C(=O)O)cn3-c2ccc(F)cc2F)CC1/C(N)=N\OCC (stereo not drawn)
Output line: 1.51

Input line: # return recorded log10 of MIC for input CCO/N=C1\CN(c2c(F)cc3c(=O)c(C(=O)O)cn4c3c2OC[C@@H]4C)CC1/C(N)=N\OC (stereo partly drawn)
Output line: -0.30

Input line: Tell me its log10 of MIC given CCO/N=C1\CN(c2c(F)cc3c(=O)c(C(=O)O)cn(C4CC4)c3c2OC)CC1/C(N)=N\OCC (stereo not drawn) as the entry.
Output line: -0.30

Input line: Complete the entry with log10 of MIC for CCO/N=C1\CN(c2c(F)cc3c(=O)c(C(=O)O)cn(C4CC4)c3c2OC)CC1/C(N)=N\OC (stereo not drawn)
Output line: -0.60

Input line: Look up and report measured log10 of MIC for this entry: CCO/N=C1\CN(c2c(F)cc3c(=O)c(C(=O)O)cn(CCF)c3c2F)CC1/C(N)=N\O (stereo not drawn)
Output line: -0.30

Input line: Return log10 of MIC for the following molecule: CO/N=C1\CN(c2c(F)cc3c(=O)c(C(=O)O)cn4c3c2OC[C@@H]4C)CC1/C(N)=N\OC (stereo partly drawn)
Output line: -0.60

Input line: Query log10 of MIC for CO/N=C1\CN(c2nc3c(cc2F)c(=O)c(C(=O)O)cn3C2CC2)CC1/C(N)=N\OC (stereo not drawn)
Output line: -0.60

Input line: Using the record for CO/N=C1\CN(c2nc3c(cc2F)c(=O)c(C(=O)O)cn3C2CC2)CC1/C(N)=N\O (stereo not drawn) , state its measured log10 of MIC.
Output line: 2.11

Input line: // Input: CO/N=C1\CN(c2c(F)cc3c(=O)c(C(=O)O)cn(C4CC4)c3c2OC)CC1/C(N)=N\OC (stereo not drawn) . Output its log10 of MIC only.
Output line: -0.60

Input line: Assign log10 of MIC to the following record: CCO/N=C(/N)C1CN(c2nc3c(cc2F)c(=O)c(C(=O)O)cn3-c2ccc(F)cc2F)C/C1=N\OC (stereo not drawn)
Output line: -0.60

Input line: Provide one value: measured log10 of MIC of CCO/N=C1\CN(c2c(F)cc3c(=O)c(C(=O)O)cn(CC)c3c2F)CC1/C(N)=N\OC (stereo not drawn)
Output line: -0.60

Input line: Give the value of log10 of MIC reported for the following: CO/N=C1\CN(c2c(F)cc3c(=O)c(C(=O)O)cn(CCF)c3c2F)CC1/C(N)=N\OC (stereo not drawn)
Output line: -0.60

Input line: Tell me its log10 of MIC given CCO/N=C1\CN(c2nc3c(cc2F)c(=O)c(C(=O)O)cn3C2CC2)CC1/C(N)=N\O (stereo not drawn) as the entry.
Output line: -0.60

Input line: Indicate its recorded log10 of MIC; the molecule in question is CCO/N=C1\CN(c2c(F)cc3c(=O)c(C(=O)O)cn(CCF)c3c2F)CC1/C(N)=N\OCC (stereo not drawn)
Output line: 0.90

Input line: Specify measured log10 of MIC for CO/N=C1\CN(c2c(F)cc3c(=O)c(C(=O)O)cn(CCF)c3c2F)CC1/C(N)=N\O (stereo not drawn) .
Output line: 0.00

Input line: Quickly give me recorded log10 of MIC for CCO/N=C1\CN(c2c(F)cc3c(=O)c(C(=O)O)cn(C4CC4)c3c2F)CC1/C(N)=N\OC (stereo not drawn)
Output line: -0.60
